STUDY SYSTEM: PqsR (Pseudomonas aeruginosa)
EXPERIMENTAL PROTOCOL: E. coli PqsR/ppqsA-lux reporter assay
Assign IC50 to each entry below.
Provide the reading as a plain figure in µM.

Supply reported IC50 belonging to this compound: CC(=O)c1cc(-c2ccccc2)n(CC(=O)Nc2nc3ccc(C)cc3s2)c1C [Compound B14] 14.5

Answer with the recorded IC50 for the compound listed here: COc1cccc(-c2nc(CC(=O)Nc3ccc(F)cc3)no2)c1 [Compound C2] 0.83

Give the measured IC50 for O=C(CN1CCC(c2nc(-c3cccc(F)c3)no2)CC1)Nc1ccccc1 [Compound B15] 7.04

For the compound CCOc1ccc(-n2nnnc2CNC(=O)Nc2cccc(Cl)c2)cc1 [Compound B8] , report IC50. 2.37

Look up and state reported IC50 for O=C(Cn1nnc(-c2ccccc2)n1)Nc1ccc(Br)cc1 [Compound C6] 0.37

Please indicate IC50 recorded for COc1ccc(Cl)cc1C(=O)NCC(O)C1CCCCC1 (centres unmarked) [Compound D3] 8.39

Fill in reported IC50 for this entry: N#Cc1ccc(NCC2CCC3(COCCN(Cc4ccccc4OC(F)F)C3)O2)nc1 (centres unmarked) [Compound A8] 1.9

Give reported IC50 value for Cc1nn(-c2ccccc2)c(-n2cccc2)c1C(=O)N1CCC(C(=O)NCCc2ccccc2)CC1 [Compound B3] 5.2

====

STUDY SYSTEM: PqsR (Pseudomonas aeruginosa, UniProt Q9I4X0)
Sequence (Q9I4X0 whole entry): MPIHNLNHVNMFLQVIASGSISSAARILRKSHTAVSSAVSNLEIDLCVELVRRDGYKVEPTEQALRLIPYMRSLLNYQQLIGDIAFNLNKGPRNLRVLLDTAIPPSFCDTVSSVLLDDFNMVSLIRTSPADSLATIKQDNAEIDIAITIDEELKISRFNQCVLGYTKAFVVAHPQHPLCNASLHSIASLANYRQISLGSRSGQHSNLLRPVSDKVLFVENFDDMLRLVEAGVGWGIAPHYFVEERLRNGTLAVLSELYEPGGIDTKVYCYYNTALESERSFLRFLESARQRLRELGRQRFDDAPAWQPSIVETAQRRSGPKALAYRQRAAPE
EXPERIMENTAL PROTOCOL: E. coli PqsR/ppqsA-lux reporter assay
QUANTITY MEASURED: pIC50
Please treat pIC50 as minus the base-10 logarithm of the molar concentration.

Complete the entry with pIC50 for N#Cc1cccc(CNCC2Cn3nnc(-c4ccccc4)c3CO2)c1 (stereo not drawn) 5.41

Supply reported pIC50 belonging to this compound: O=C(Cn1cnc2c(oc3ccccc32)c1=O)N1CCC(Cc2ccccc2)CC1 4.84

Complete the entry with pIC50 for O=S(=O)(Nc1ccc(F)cc1Cl)c1ccc(-c2cc(C(F)(F)F)n[nH]2)s1 5.42

For the compound Cc1ccc(C(=O)NCc2nc(-c3ccc(Oc4ccccc4)cc3)no2)cc1 , give its reported pIC50. 5.70

Return value of pIC50 for input Oc1cc(CN2CCC(CCn3cccn3)CC2)nc2ccc(F)cc12 , no commentary. 6.68

Give the reported pIC50 for this compound. O=C(NCc1cccs1)C1CCN(c2ccc3nnc(-c4ccccc4F)n3n2)CC1 4.92

Read the entry CC(C)Oc1ccc(N2CC(C(=O)Nc3cccc(Cl)c3Cl)CC2=O)cc1 (stereo not drawn) and write its reported pIC50. 5.33

Return pIC50 for the following compound: O=S(=O)(c1ccc(-c2cc(C(F)(F)F)n[nH]2)s1)N1CC=C(c2ccccc2)CC1 6.26

Look up and report measured pIC50 for this entry: O=C(NC1CCN(Cc2cc(F)cc(F)c2)CC1)c1cc(C(F)(F)F)n[nH]1 6.57

====

Test system: pphz1-lux in WT P. aeruginosa
EXPERIMENTAL PROTOCOL: P. aeruginosa pphz1-lux bioluminescent reporter assay
Format: cell-based, Pseudomonas aeruginosa PA14
APPLIED CONDITIONS: Pseudomonas aeruginosa, PA14, read-out: IC50 PA14
Description: Strains were struck onto LB agar and grown overnight at 37 °C. The following day, individual colonies were isolated and transferred into LB liquid medium followed by incubation at 37 °C. After overnight growth, cultures were diluted 1:1000 into M9 medium. 100 μL of these suspensions were aliquoted into wells of 96 well plates (Corning). […] Light production and OD600 were quantified from each well at either 15 or 20 min intervals (Neo2, Agilent). […]
QUANTITY MEASURED: pIC50
The value called pIC50 is obtained by taking minus log10 of the concentration in mol/L.

Would you please give the reported pIC50 of O=C(NC(C(=O)N1CCOCC1)C12CC3CC(CC(C3)C1)C2)c1ccc([N+](=O)[O-])cc1 (stereo not drawn) with pphz1-lux in WT P. aeruginosa? 4.98

Provide pIC50, tested on pphz1-lux in WT P. aeruginosa, for Cc1cc(Br)ccc1NC(=O)CNC(=O)c1ccc(-n2cnc3ccccc32)cc1 [Compound D1] . 5.41

// output pIC50; input O=C(Nc1nnc(C(F)(F)F)s1)C1CC(=O)N(CCc2c[nH]c3ccc(Cl)cc23)C1 (stereo not drawn) ; system pphz1-lux in WT P. aeruginosa 5.55

Fill in pIC50 for CCOc1ccc(-n2nnnc2CNC(=O)Nc2cccc(Cl)c2)cc1 tested with pphz1-lux in WT P. aeruginosa. 5.19

Please indicate recorded pIC50 of N#Cc1cc(CN2CCC3(CC2)CC(Nc2ncccn2)C3)ccc1F measured with pphz1-lux in WT P. aeruginosa. 5.66

Quote pphz1-lux in WT P. aeruginosa pIC50 for entry O=S(=O)(Nc1ccc(F)cc1Cl)c1ccc(-c2cc(C(F)(F)F)n[nH]2)s1 . 5.46

Please indicate recorded pIC50 of CCOC1CCN(C(=O)c2cccc(-c3ccc(OC(F)F)cc3)c2)CC1 measured with pphz1-lux in WT P. aeruginosa. 5.36

State, for pphz1-lux in WT P. aeruginosa, measured pIC50 of the compound listed here: COc1cccc(-c2nc(CC(=O)Nc3ccc(F)cc3)no2)c1 5.49

Supply pIC50 measured with pphz1-lux in WT P. aeruginosa for O=C(NC1CCN(Cc2cc(F)cc(F)c2)CC1)c1cc(C(F)(F)F)n[nH]1 . 5.41
